readout: melting point (°C)

molecule="N#Cc1c(N2CCN(C(=O)c3cccs3)CC2)c2cscc2n(Cc2ccc(F)cc2)c1=O [Compound 49]" experimental_value=238
molecule="N#Cc1c(N2CCN(C(=O)c3cccs3)CC2)c2cscc2n(CC(=O)c2ccccc2)c1=O [Compound 48]" experimental_value=308
